Molecular target: T1, human IL-18 binding protein (human, UniProt O95998 31-194)
T1 sequence (looked up): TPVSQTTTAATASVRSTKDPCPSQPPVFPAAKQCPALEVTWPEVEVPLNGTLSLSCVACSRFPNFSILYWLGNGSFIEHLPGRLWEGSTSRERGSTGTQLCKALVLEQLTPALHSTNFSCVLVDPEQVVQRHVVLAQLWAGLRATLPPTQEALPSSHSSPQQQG
Test: cell-based or functional assay
quantity_kind: HEK-blue EC50 (pM) + 300 nM IL-18BP
Just the number in pM, nothing appended.

binder	output_unit	HEK-blue EC50 (pM) + 300 nM IL-18BP
Comparator 1-monospecific KiH (Fc fusion) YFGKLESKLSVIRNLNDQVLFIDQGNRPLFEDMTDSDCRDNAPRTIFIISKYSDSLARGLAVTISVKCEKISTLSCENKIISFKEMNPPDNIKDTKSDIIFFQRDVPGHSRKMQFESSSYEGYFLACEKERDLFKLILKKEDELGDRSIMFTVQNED	pM	0.03
G3T/E6K/K53A-monospecific KiH (Fc fusion) YFTKLKSKLSVIRNLNDQVLFIDQGNRPLFEDMTDSDMRDNAPRTIFIISMYADSQPRGMAVTISVKSEKISTLSSENKIISFKEMNPPDNIKDTKSDIIFFQRSVPGHDNKMQFESSSYEGYFLASEKERDLFKLILKKEDELGDRSIMFTVQNED	pM	1.16
G3V/M60K-monospecific KiH (Fc fusion) YFVKLESKLSVIRNLNDQVLFIDQGNRPLFEDMTDSDMRDNAPRTIFIISMYKDSQPRGKAVTISVKSEKISTLSSENKIISFKEMNPPDNIKDTKSDIIFFQRSVPGHDNKMQFESSSYEGYFLASEKERDLFKLILKKEDELGDRSIMFTVQNED	pM	2.01

Let us examine a further case.
Prompt: Quick one: HEK-blue EC50 (pM) + 300 nM IL-18BP for G3T/M60K-monospecific KiH (Fc fusion) YFTKLESKLSVIRNLNDQVLFIDQGNRPLFEDMTDSDMRDNAPRTIFIISMYKDSQPRGKAVTISVKSEKISTLSSENKIISFKEMNPPDNIKDTKSDIIFFQRSVPGHDNKMQFESSSYEGYFLASEKERDLFKLILKKEDELGDRSIMFTVQNED ?
Response: 2.64
